- Organism: Rattus norvegicus
- ASSAY NAME: Open TG-GATES - Regimen: Daily Repeat
- Assay type: toxicity, organism-based, Sprague-Dawley
- Parameters: regimen Daily Repeat, gender Male, age 6 weeks
- CONDITION DETAILS: in vivo, po, 300 mg/kg, […], tissue Plasma, route gavage, dose level Middle, time 14 day
EXPERIMENTAL ENDPOINT: ALT (IU/L)
Just the number in IU/L, nothing appended.

Before answering, review these 2 worked examples.
Cc1nnc2n1-c1ccc(Cl)cc1C(c1ccccc1Cl)=NC2    43
CCOc1ccc(NC(C)=O)cc1    37.2

Let us move to another entry and its ALT.
IN: Indicate the recorded ALT value for this compound: COC(=O)C1=C(C)NC(C)=C(C(=O)OC)C1c1ccccc1[N+](=O)[O-]
OUT: 47.6

* * *

Entries and their RBC values follow.
- Organism: Rattus norvegicus
- ASSAY NAME: Open TG-GATES - Regimen: Single
- Format: toxicity, organism-based, Sprague-Dawley
- Design: regimen Single, gender Male, age 6 weeks
- CONDITION DETAILS: in vivo, po, 300 mg/kg, 3 h, tissue Blood, route gavage, dose level Middle
Just the number in x10_4/ul, nothing appended.

Before answering, review these 2 worked examples.
CNC(=C[N+](=O)[O-])NCCSCc1ccc(CN(C)C)o1    606
CN/C(=N/CCSCc1nc[nH]c1C)NC#N    587.2

Let us move to another entry and its RBC.
IN: Indicate the recorded RBC value for this compound: COC(=O)C1=C(C)NC(C)=C(C(=O)OC)C1c1ccccc1[N+](=O)[O-]
OUT: 613

* * *

- Species: Rattus norvegicus
- ASSAY NAME: Open TG-GATES - Regimen: Daily Repeat
- Assay type: toxicity, organism-based, Sprague-Dawley
- Parameters: regimen Daily Repeat, gender Male, age 6 weeks
- CONDITION DETAILS: in vivo, po, 0 mg/kg, […], tissue Kidney, route gavage, dose level Control, time 28 day
EXPERIMENTAL ENDPOINT: KIDNEY_L (g)
Just the number in g, nothing appended.

Before answering, review these 4 worked examples.
CCCc1cc(=O)[nH]c(=S)[nH]1 [PROPYLTHIOURACIL]    1.3
CN1C(=O)CCS(=O)(=O)C1c1ccc(Cl)cc1 (stereo not given) [CHLORMEZANONE]    1.4
Brc1ccccc1 [BROMOBENZENE]    1.3
O=C(OC[C@H]1O[C@@H](OC(=O)c2cc(O)c(O)c(OC(=O)c3cc(O)c(O)c(O)c3)c2)[C@H](OC(=O)c2cc(O)c(O)c(OC(=O)c3cc(O)c(O)c(O)c3)c2)[C@@H](OC(=O)c2cc(O)c(O)c(OC(=O)c3cc(O)c(O)c(O)c3)c2)[C@@H]1OC(=O)c1cc(O)c(O)c(OC(=O)c2cc(O)c(O)c(O)c2)c1)c1cc(O)c(O)c(OC(=O)c2cc(O)c(O)c(O)c2)c1 [TANNIC ACID]    1.4

Let us move to another entry and its KIDNEY_L.
IN: Indicate the recorded KIDNEY_L value for this compound: Nc1c2c(nc3ccccc13)CCCC2 [TACRINE]
OUT: 1.4

* * *

- Species on record: Rattus norvegicus
- ASSAY NAME: Open TG-GATES - Regimen: Single
- Type: toxicity, organism-based, Sprague-Dawley
- Set-up: regimen Single, gender Male, age 6 weeks
- CONDITION DETAILS: in vivo, po, 0 mg/kg, 24 h, tissue Plasma, route gavage, dose level Control
EXPERIMENTAL ENDPOINT: LDH (IU/L)
Just the number in IU/L, nothing appended.

CNC(=C[N+](=O)[O-])NCCSCc1ccc(CN(C)C)o1    121

IN: Indicate the recorded LDH value for this compound: CN1C(=O)CCS(=O)(=O)C1c1ccc(Cl)cc1 (centres undefined)
OUT: 69.4

IN: Indicate the recorded LDH value for this compound: CS(=O)(=O)O.Cc1ccc(NC(=O)c2ccc(CN3CCN(C)CC3)cc2)cc1Nc1nccc(-c2cccnc2)n1 [IMATINIB MESYLATE]
OUT: 195.2

IN: Indicate the recorded LDH value for this compound: Brc1ccccc1
OUT: 114.4

* * *

Entries and their TERMINAL_BW values follow.
- Species on record: Rattus norvegicus
- ASSAY NAME: Open TG-GATES - Regimen: Daily Repeat
- Type: toxicity, organism-based, Sprague-Dawley
- Set-up: regimen Daily Repeat, gender Male, age 6 weeks
- CONDITION DETAILS: in vivo, po, 0 mg/kg, 72 h, route gavage, dose level Control, time 3 day
Give the number first and the unit second.

Before answering, review these 2 worked examples.
CN1C(=O)CCS(=O)(=O)C1c1ccc(Cl)cc1 (configuration not stated) [CHLORMEZANONE]    227.8 g
CCCc1cc(=O)[nH]c(=S)[nH]1 [PROPYLTHIOURACIL]    207.9 g

IN: Indicate the recorded TERMINAL_BW value for this compound: CN/C(=N/CCSCc1nc[nH]c1C)NC#N [CIMETIDINE]
OUT: 226.2 g

IN: Indicate the recorded TERMINAL_BW value for this compound: CC(C)NNC(=O)c1ccncc1 [IPRONIAZID]
OUT: 213.5 g

IN: Indicate the recorded TERMINAL_BW value for this compound: CN(C)CCC(c1ccc(Cl)cc1)c1ccccn1 (configuration not stated) [CHLORPHENIRAMINE]
OUT: 224.6 g

IN: Indicate the recorded TERMINAL_BW value for this compound: Cc1nnc2n1-c1ccc(Cl)cc1C(c1ccccc1Cl)=NC2 [TRIAZOLAM]
OUT: 223.3 g

IN: Indicate the recorded TERMINAL_BW value for this compound: NC1=NC(=O)C(c2ccccc2)O1 (configuration not stated) [PEMOLINE]
OUT: 236.5 g

* * *

- Organism: Rattus norvegicus
- ASSAY NAME: Open TG-GATES - Regimen: Single
- Assay type: toxicity, organism-based, Sprague-Dawley
- Parameters: regimen Single, gender Male, age 6 weeks
- CONDITION DETAILS: in vivo, po, 0 mg/kg, 9 h, tissue Blood, route gavage, dose level Control
Classify: condition met when Ret is strictly less than 9%; condition not met when Ret is not.

# count of solved cases: 5
O=C(OC[C@H]1O[C@@H](OC(=O)c2cc(O)c(O)c(OC(=O)c3cc(O)c(O)c(O)c3)c2)[C@H](OC(=O)c2cc(O)c(O)c(OC(=O)c3cc(O)c(O)c(O)c3)c2)[C@@H](OC(=O)c2cc(O)c(O)c(OC(=O)c3cc(O)c(O)c(O)c3)c2)[C@@H]1OC(=O)c1cc(O)c(O)c(OC(=O)c2cc(O)c(O)c(O)c2)c1)c1cc(O)c(O)c(OC(=O)c2cc(O)c(O)c(O)c2)c1    condition not met
CC(C)NNC(=O)c1ccncc1    condition met
CCCc1cc(=O)[nH]c(=S)[nH]1    condition not met
CCOc1ccc(NC(C)=O)cc1    condition met
CNC(=C[N+](=O)[O-])NCCSCc1ccc(CN(C)C)o1    condition met

IN: Regarding Brc1ccccc1 , kindly confirm whether its Ret is beneath 9%.
OUT: condition not met

* * *

- Species: Rattus norvegicus
- ASSAY NAME: Open TG-GATES - Regimen: Daily Repeat
- Type: toxicity, organism-based, Sprague-Dawley
- Set-up: regimen Daily Repeat, gender Male, age 6 weeks
- CONDITION DETAILS: in vivo, po, 300 mg/kg, […], tissue Blood, route gavage, dose level Middle, time 7 day
Entries and their RBC values follow.
Just the number in x10_4/ul, nothing appended.

COC(=O)C1=C(C)NC(C)=C(C(=O)OC)C1c1ccccc1[N+](=O)[O-]    671
CN/C(=N/CCSCc1nc[nH]c1C)NC#N    646.8

Let us move to another entry and its RBC.
IN: Indicate the recorded RBC value for this molecule: CCOc1ccc(NC(C)=O)cc1
OUT: 666.2

* * *

Entries and their PT values follow.
- Species on record: Rattus norvegicus
- ASSAY NAME: Open TG-GATES - Regimen: Daily Repeat
- Assay type: toxicity, organism-based, Sprague-Dawley
- Parameters: regimen Daily Repeat, gender Male, age 6 weeks
- CONDITION DETAILS: in vivo, po, 0 mg/kg, […], tissue Blood, route gavage, dose level Control, time 28 day
Just the number in s, nothing appended.

CCCc1cc(=O)[nH]c(=S)[nH]1 [PROPYLTHIOURACIL]    12.1
CC(C)NNC(=O)c1ccncc1 [IPRONIAZID]    15.8
Cc1nnc2n1-c1ccc(Cl)cc1C(c1ccccc1Cl)=NC2 [TRIAZOLAM]    13.4

Let us move to another entry and its PT.
IN: Indicate the recorded PT value for this compound: COC(=O)C1=C(C)NC(C)=C(C(=O)OC)C1c1ccccc1[N+](=O)[O-] [NIFEDIPINE]
OUT: 14.5

* * *

Entries and their TC values follow.
- Species: Rattus norvegicus
- ASSAY NAME: Open TG-GATES - Regimen: Single
- Type: toxicity, organism-based, Sprague-Dawley
- Parameters: regimen Single, gender Male, age 6 weeks
- CONDITION DETAILS: in vivo, po, 0 mg/kg, 24 h, tissue Plasma, route gavage, dose level Control
Give the number first and the unit second.

Before answering, review these 5 worked examples.
CCOc1ccc(NC(C)=O)cc1    81.8 mg/dL
CS(=O)(=O)O.Cc1ccc(NC(=O)c2ccc(CN3CCN(C)CC3)cc2)cc1Nc1nccc(-c2cccnc2)n1 [IMATINIB MESYLATE]    75.2 mg/dL
CN1C(=O)CCS(=O)(=O)C1c1ccc(Cl)cc1 (stereo unspecified)    77.4 mg/dL
COC(=O)C1=C(C)NC(C)=C(C(=O)OC)C1c1ccccc1[N+](=O)[O-]    87.8 mg/dL
CC(C)NNC(=O)c1ccncc1    82.2 mg/dL

Let us move to another entry and its TC.
IN: Indicate the recorded TC value for this compound: CCCc1cc(=O)[nH]c(=S)[nH]1
OUT: 83.2 mg/dL
